# Assayed Target: UniProtKB P0DTD1
# Type: binding
Property Label: Helicase Tm °C 20 µM (°C)

O=C(O[C@@H]1Cc2c(O)cc(O)cc2O[C@@H]1c1cc(O)c(O)c(O)c1)c1cc(O)c(O)c(O)c1 [(−)-epigallocatechin gallate]    38.4
O=C(c1cc(O)c(O)c(O)c1)c1ccc(O)c(O)c1O    38.3
O=c1c(O)c(-c2cc(O)c(O)c(O)c2)oc2cc(O)cc(O)c12    38.3
CO[C@H](C(=O)[C@@H](O)[C@@H](C)O)[C@@H]1Cc2cc3cc(O[C@H]4C[C@@H](O[C@H]5C[C@@H](O)[C@H](O)[C@@H](C)O5)[C@H](O)[C@@H](C)O4)c(C)c(O)c3c(O)c2C(=O)[C@H]1O[C@H]1C[C@@H](O[C@H]2C[C@@H](O[C@H]3C[C@](C)(O)[C@H](O)[C@@H](C)O3)[C@@H](O)[C@@H](C)O2)[C@H](O)[C@@H](C)O1    38.3
Cc1ccc(C(=O)Nc2ccc(S(=O)(=O)O)c3cc(S(=O)(=O)O)cc(S(=O)(=O)O)c23)cc1NC(=O)c1cccc(NC(=O)Nc2cccc(C(=O)Nc3cc(C(=O)Nc4ccc(S(=O)(=O)O)c5cc(S(=O)(=O)O)cc(S(=O)(=O)O)c45)ccc3C)c2)c1 [suramin hexasodium]    36.8
